Biological target: Mcl-1 (UniProt Q07820 1-350)
Sequence (Q07820 whole entry): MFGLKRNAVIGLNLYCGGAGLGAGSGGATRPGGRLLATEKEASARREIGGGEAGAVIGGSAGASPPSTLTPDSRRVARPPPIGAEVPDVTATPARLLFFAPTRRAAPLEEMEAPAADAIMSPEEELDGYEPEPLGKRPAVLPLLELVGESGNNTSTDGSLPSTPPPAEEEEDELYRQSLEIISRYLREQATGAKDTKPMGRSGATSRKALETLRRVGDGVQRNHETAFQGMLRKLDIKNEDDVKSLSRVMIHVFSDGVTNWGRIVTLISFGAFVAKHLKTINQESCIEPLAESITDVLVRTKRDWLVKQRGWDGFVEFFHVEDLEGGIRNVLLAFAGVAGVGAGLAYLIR
Assay: fluorescence polarisation
pKi: −log10 of the molar value.
READOUT_LABEL: pKi

binder="Ac-RPEIWLAQYLRRLGDQINAYYAR-NH2 [FD1]" readout_label=pKi readout_number=10.00
binder="Ac-RPEIWIAQGLRRIGDTWNAYYAR-NH2 [FW1 (unlabeled, 23 residues)]" readout_label=pKi readout_number=9.70
